Tested on: HL-60
Test: Antiproliferative activity against human HL60 cells assessed as reduction in cell viability incubated for 48 hrs by MTS assay
Type: functional, cell-based
Conditions: HL-60, 48 h
pIC50: −log10 of the molar value.
Recorded measurements of pIC50, one per entry

| Smiles Data | Comparison Operator | pIC50 |
| --- | --- | --- |
| CC(C)CCC[C@@H](C)[C@H]1CC[C@H]2[C@@H]3CC=C4C[C@@H](n5ccnc5)CC[C@]4(C)[C@H]3CC[C@]12C | < | 4.70 |
| C[C@@H]1CC[C@@]2(OC1)O[C@H]1C[C@H]3[C@@H]4CC=C5C[C@H](n6cc[n+](CC(=O)c7cccc(Br)c7)c6)CC[C@]5(C)[C@H]4CC[C@]3(C)[C@H]1[C@@H]2C | = | 5.90 |
| C[C@@H]1CC[C@@]2(OC1)O[C@H]1C[C@H]3[C@@H]4CC=C5C[C@H](n6cc[n+](Cc7ccccc7Br)c6)CC[C@]5(C)[C@H]4CC[C@]3(C)[C@H]1[C@@H]2C | = | 6.37 |
| COc1ccc(C(=O)C[n+]2cn([C@@H]3CC[C@@]4(C)C(=CC[C@H]5[C@@H]6C[C@@H]7O[C@]8(CC[C@@H](C)CO8)[C@@H](C)[C@@H]7[C@@]6(C)CC[C@@H]54)C3)c3cc(C)c(C)cc32)cc1 | = | 6.13 |
| CC(C)CCC[C@@H](C)[C@H]1CC[C@H]2[C@@H]3C[C@H](n4cc[n+](Cc5ccccc5Br)c4)[C@]45C[C@H]4CC[C@]5(C)[C@H]3CC[C@]12C | = | 5.26 |
| CC(C)CCC[C@@H](C)[C@H]1CC[C@H]2[C@@H]3CC=C4C[C@H](n5cc[n+](Cc6ccccc6Br)c5)CC[C@]4(C)[C@H]3CC[C@]12C | = | 5.80 |
| COc1ccc(C(=O)C[n+]2ccn([C@H]3CC[C@H]4[C@@H]5CC=C6C[C@@H](O)CC[C@]6(C)[C@H]5CC[C@]34C)c2)cc1 | < | 4.70 |
| CC(=O)O[C@H]1CC[C@@]2(C)C(=CC[C@H]3[C@@H]4CC[C@H](n5cc[n+](Cc6ccc7ccccc7c6)c5)[C@@]4(C)CC[C@@H]32)C1 | = | 5.91 |
| C[C@]12CC[C@H]3[C@@H](CC=C4C[C@@H](O)CC[C@@]43C)[C@@H]1CC[C@@H]2n1ccnc1 | < | 4.70 |
| CC(C)CCC[C@@H](C)[C@H]1CC[C@H]2[C@@H]3CC=C4C[C@@H](n5cc[n+](CC(=O)c6ccc7ccccc7c6)c5)CC[C@]4(C)[C@H]3CC[C@]12C | = | 5.14 |
| CC(=O)O[C@H]1CC[C@@]2(C)C(=CC[C@H]3[C@@H]4CC[C@H](n5cc[n+](CC(=O)c6cccc(Br)c6)c5)[C@@]4(C)CC[C@@H]32)C1 | = | 5.36 |

====

System: HL-60
Experiment: Antiproliferative activity against human HL60 cells assessed as reduction in cell viability incubated for 48 hrs by MTS assay
Assay type: functional, cell-based
Settings: HL-60, 48 h
pIC50: −log10 of the molar value.
Measured Attribute: pIC50

| Smiles Data | Target | Measured Attribute | Comparison Operator | Value Reported |
| --- | --- | --- | --- | --- |
| CC(C)CCC[C@@H](C)[C@H]1CC[C@H]2[C@@H]3CC=C4C[C@@H](n5cc[n+](Cc6ccccc6Br)c5)CC[C@]4(C)[C@H]3CC[C@]12C | HL-60 | pIC50 | = | 5.63 |
| c1ccc2[nH]cnc2c1 | HL-60 | pIC50 | < | 4.70 |
| CC(C)CCC[C@@H](C)[C@H]1CC[C@H]2[C@@H]3C[C@H](n4cc[n+](CC(=O)c5ccc6ccccc6c5)c4)[C@]45C[C@H]4CC[C@]5(C)[C@H]3CC[C@]12C | HL-60 | pIC50 | = | 5.62 |

====

Recorded measurements of pIC50, one per entry
Tested on: HL-60
Test: Antiproliferative activity against human HL60 cells assessed as reduction in cell viability incubated for 48 hrs by MTS assay
Type: functional, cell-based
Details: HL-60, 48 h
pIC50: −log10 of the molar value.
Measured Attribute: pIC50

| Smiles Data | Target | Measured Attribute | Comparison Operator | Value Reported |
| --- | --- | --- | --- | --- |
| CC(C)CCC[C@@H](C)[C@H]1CC[C@H]2[C@@H]3CC=C4C[C@H](n5cc[n+](CC(=O)c6cccc(Br)c6)c5)CC[C@]4(C)[C@H]3CC[C@]12C | HL-60 | pIC50 | = | 5.00 |
| CC(C)CCC[C@@H](C)[C@H]1CC[C@H]2[C@@H]3C[C@H](n4ccnc4)[C@]45C[C@H]4CC[C@]5(C)[C@H]3CC[C@]12C | HL-60 | pIC50 | = | 5.70 |
| CC(C)CCC[C@@H](C)[C@H]1CC[C@H]2[C@@H]3CC=C4C[C@@H](n5cc[n+](Cc6ccc7ccccc7c6)c5)CC[C@]4(C)[C@H]3CC[C@]12C | HL-60 | pIC50 | = | 5.27 |
| Cc1cc2c(cc1C)[n+](Cc1ccc3ccccc3c1)cn2[C@@H]1CC[C@@]2(C)C(=CC[C@H]3[C@@H]4C[C@@H]5O[C@]6(CC[C@@H](C)CO6)[C@@H](C)[C@@H]5[C@@]4(C)CC[C@@H]32)C1 | HL-60 | pIC50 | = | 6.38 |
| CC(=O)O[C@H]1CC[C@@]2(C)C(=CC[C@H]3[C@@H]4CC[C@H](n5ccnc5)[C@@]4(C)CC[C@@H]32)C1 | HL-60 | pIC50 | < | 4.70 |
| CC(C)CCC[C@@H](C)[C@H]1CC[C@H]2[C@@H]3CC=C4C[C@H](n5c[n+](CC(=O)c6ccccc6)c6ccccc65)CC[C@]4(C)[C@H]3CC[C@]12C | HL-60 | pIC50 | = | 6.06 |
| C[C@@H]1CC[C@@]2(OC1)O[C@H]1C[C@H]3[C@@H]4CC=C5C[C@H](n6c[n+](Cc7ccccc7Br)c7ccccc76)CC[C@]5(C)[C@H]4CC[C@]3(C)[C@H]1[C@@H]2C.[Br-] | HL-60 | pIC50 | = | 6.47 |
| C[C@]12CC[C@H]3[C@@H](CC=C4C[C@@H](O)CC[C@@]43C)[C@@H]1CC[C@@H]2n1cc[n+](CC(=O)c2cccc(Br)c2)c1 | HL-60 | pIC50 | = | 5.19 |
| C[C@@H]1CC[C@@]2(OC1)O[C@H]1C[C@H]3[C@@H]4CC=C5C[C@@H](n6cc[n+](CC(=O)c7ccccc7)c6)CC[C@]5(C)[C@H]4CC[C@]3(C)[C@H]1[C@@H]2C | HL-60 | pIC50 | = | 5.93 |
| C[C@@H]1CC[C@@]2(OC1)O[C@H]1C[C@H]3[C@@H]4C[C@H](n5cc[n+](Cc6ccccc6Br)c5)[C@]56C[C@H]5CC[C@]6(C)[C@H]4CC[C@]3(C)[C@H]1[C@@H]2C | HL-60 | pIC50 | = | 5.91 |
| Cc1cc2ncn([C@@H]3CC[C@@]4(C)C(=CC[C@H]5[C@@H]6C[C@@H]7O[C@]8(CC[C@@H](C)CO8)[C@@H](C)[C@@H]7[C@@]6(C)CC[C@@H]54)C3)c2cc1C | HL-60 | pIC50 | < | 4.70 |
| CC(C)CCC[C@@H](C)[C@H]1CC[C@H]2[C@@H]3CC=C4C[C@@H](n5cc[n+](CC(=O)c6ccccc6)c5)CC[C@]4(C)[C@H]3CC[C@]12C | HL-60 | pIC50 | = | 5.11 |
| Cc1cc2c(cc1C)[n+](CC(=O)c1ccccc1)cn2[C@@H]1CC[C@@]2(C)C(=CC[C@H]3[C@@H]4CC[C@H]([C@H](C)CCCC(C)C)[C@@]4(C)CC[C@@H]32)C1 | HL-60 | pIC50 | = | 6.55 |
| CC(C)CCC[C@@H](C)[C@H]1CC[C@H]2[C@@H]3CC=C4C[C@H](n5cc[n+](CC(=O)c6ccc7ccccc7c6)c5)CC[C@]4(C)[C@H]3CC[C@]12C | HL-60 | pIC50 | = | 4.97 |
| CC(C)CCC[C@@H](C)[C@H]1CC[C@H]2[C@@H]3CC=C4C[C@@H](O)CC[C@]4(C)[C@H]3CC[C@]12C | HL-60 | pIC50 | < | 4.70 |
| C[C@@H]1CC[C@@]2(OC1)O[C@H]1C[C@H]3[C@@H]4CC=C5C[C@H](n6ccnc6)CC[C@]5(C)[C@H]4CC[C@]3(C)[C@H]1[C@@H]2C | HL-60 | pIC50 | < | 4.70 |
| C[C@@H]1CC[C@@]2(OC1)O[C@H]1C[C@H]3[C@@H]4C[C@H](n5cc[n+](CC(=O)c6ccccc6)c5)[C@]56C[C@H]5CC[C@]6(C)[C@H]4CC[C@]3(C)[C@H]1[C@@H]2C | HL-60 | pIC50 | = | 5.57 |
| C[C@@H]1CC[C@@]2(OC1)O[C@H]1C[C@H]3[C@@H]4CC=C5C[C@H](n6cc[n+](CC(=O)c7ccccc7)c6)CC[C@]5(C)[C@H]4CC[C@]3(C)[C@H]1[C@@H]2C | HL-60 | pIC50 | = | 5.96 |
| C[C@@H]1CC[C@@]2(OC1)O[C@H]1C[C@H]3[C@@H]4CC=C5C[C@H](n6cc[n+](CC(=O)c7ccc8ccccc8c7)c6)CC[C@]5(C)[C@H]4CC[C@]3(C)[C@H]1[C@@H]2C | HL-60 | pIC50 | = | 6.02 |
| C[C@]12CC[C@H]3[C@@H](CC=C4C[C@@H](O)CC[C@@]43C)[C@@H]1CC[C@@H]2n1cc[n+](Cc2ccccc2Br)c1 | HL-60 | pIC50 | = | 5.20 |
